Origin of the recorded values: paper PMC5402990

# Tested on: MARV
# assay-details: organism not typed
# Assay type: cell-based, Marburg virus
# condition-details: Huh-7
Counter-ions that a name gives are not always drawn.
attribute-measured: IC50

- CN(C)CCOc1ccc(/C(=C(/CCCl)c2ccccc2)c2ccccc2)cc1 [Toremifene citrate]: 5.38 µM

---

# Test system: MARV
# assay-details: organism not typed
# Assay type: cell-based, Marburg virus
# condition-details: Vero C1008
pIC50: −log10 of the molar value. Where a name gives a salt, the structure may show the parent alone.
attribute-measured: pIC50

* CN(C)CCOc1ccc(/C(=C(/CCCl)c2ccccc2)c2ccccc2)cc1 [Toremifene citrate] | 5.63

---

# assay-details: in vitro
# condition-details: human
attribute-measured: CC50

* Cc1cccc(/C=N/Nc2cc(N3CCOCC3)nc(OCCc3ccccn3)n2)c1 [Apilimod, apilimod] | > 2000 nM
